Assignment: determine reported normalised cell number for the given compounds.
- procedureText: differential killing of epithelial or mesenchymal cells, primary screen, imaging, PC-3E GFP, TEM4-18 mCherry, co-culture (AID 1345086);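 note: cells exposed to compound for 72 h before imaging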
- testParameters: imaging cell counts, measured here: epithelial PC-3E GFP cell survival, at 1 µM
Numbers only.

I would be grateful if you could provide normalised cell number for each of the following entries.
1. Nc1nc(Cl)nc2c1ncn2C1O[C@H](CO)[C@@H](O)[C@@H]1F (stereo not given in full)
2. CO[C@H]1C[C@H](O[C@H]2[C@H](C)[C@@H](O[C@@H]3O[C@H](C)C[C@H](N(C)C)[C@H]3O)[C@@H](C)C[C@]3(CO3)C(=O)[C@H](C)[C@@H](O)[C@@H](C)[C@@H](C)OC(=O)[C@@H]2C)O[C@@H](C)[C@@H]1O
3. CC(=O)O[C@]1(C(C)=O)CCC2C3C=C(C)C4=CC(=O)CCC4(C)C3CCC21C (stereo not given in full)

// result
[0.22, 1.06, 1.18]

* * *

- procedureText: ovarian cancer cell viability with rucaparib, profiling panel, oncology-focused library, rucaparib conditional (AID 1508598)
- testParameters: patient-derived ovarian cancer cells, CellTiter-Glo viability, 144 h; at 0.00122 µM; OCI-P5x cells; without rucaparib; stronger effect = lower value
Calls of active or inactive are those of the source.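 Rule for the calls: active = normalized viability below 100% at a tested concentration; inactive = the rest.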
propertyName: viability

See these solved cases before continuing.
# molecule O=C(c1ccc(OCCN2CCCCC2)cc1)c1c(-c2ccc(O)cc2)sc2cc(O)ccc12 ; its viability = 103% (inactive)

# molecule N#Cc1c(O)c2c(-c3ccc(-c4ccccc4O)cc3)csc2[nH]c1=O ; its viability = 107% (inactive)

# molecule O=C1CN2Cc3c(ccc(Cl)c3Cl)N=C2N1 ; its viability = 107% (inactive)

# molecule CN(C)CCCn1cc(C2=C(c3c[nH]c4ccccc34)C(=O)NC2=O)c2ccccc21 ; its viability = 96% (active)

With those in mind, consider the next molecule.
# molecule C[C@H](NC(=O)Cc1cc(F)cc(F)c1)C(=O)N[C@H](C(=O)OC(C)(C)C)c1ccccc1 ; its viability = 107% (inactive)

* * *

Assignment: determine reported mean signal for the given compounds.
- procedureText: modulation of C. elegans fzo-1 (AID 1259413);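 note: fzo-1 mutant C. elegans worms in liquid wells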
- testParameters: C. elegans fzo-1 modulator screen, mean read-out; stronger effect = higher value
Numbers only.

See these solved cases before continuing.
# compound CC1(C)O[C@@H]2C[C@H]3[C@@H]4C[C@H](F)C5=CC(=O)C=CC5(C)[C@H]4[C@@H](O)CC3(C)C2(C(=O)CO)O1 (stereo not given in full) ; its mean signal = 250

# compound C=CC[C@@H]1/C=C(\C)C[C@H](C)C[C@H](OC)[C@H]2OC(O)(C(=O)C(=O)N3CCCC[C@H]3C(=O)O[C@H](/C(C)=C/[C@@H]3CC[C@@H](O)[C@H](OC)C3)[C@H](C)[C@@H](O)CC1=O)[C@H](C)C[C@@H]2OC ; its mean signal = 274

# compound CCC(=O)O[C@]1(C(=O)CCl)[C@@H](C)C[C@H]2[C@@H]3CCC4=CC(=O)C=CC4(C)[C@@]3(F)[C@@H](O)CC21C (stereo not given in full) ; its mean signal = 254

# compound Nc1ncnc2c1ncn2[C@@H]1O[C@H](CO)C[C@@H]1O ; its mean signal = 230

# compound CCN(CC)C(=O)[C@]1(c2ccccc2)C[C@@H]1CN ; its mean signal = 248

# compound CC1(C)O[C@@H]2C[C@H]3[C@@H]4C[C@H](F)C5=CC(=O)C=CC5(C)[C@@]4(F)[C@@H](O)CC3(C)C2(C(=O)CO)O1 (stereo not given in full) ; its mean signal = 256

I would be grateful if you could provide mean signal for each of the following entries.
1. CC(N)(Cc1ccc(O)c(O)c1)C(=O)O (stereo not given)
2. CCC(C)n1ncn(-c2ccc(N3CCN(c4ccc(OCC5COC(Cn6cncn6)(c6ccc(Cl)cc6Cl)O5)cc4)CC3)cc2)c1=O (stereo not given)

// result
1: 264; 2: 270

I would be grateful if you could provide mean signal for each of the following entries.
1. CN(C)CCCC1(c2ccc(F)cc2)OCc2cc(C#N)ccc21 (stereo not given)
2. CC(=O)O[C@H]1C[C@@H]2CC[C@@H]3[C@H](CCC4(C)[C@H]3C[C@H]([N+]3(C)CCCCC3)[C@@H]4OC(C)=O)C2(C)C[C@@H]1N1CCCCC1 (stereo not given in full)

// result
1: 220; 2: 285

I would be grateful if you could provide mean signal for each of the following entries.
1. CCN(CC)CC#CCOC(=O)C(O)(c1ccccc1)C1CCCCC1 (stereo not given)
2. CCC1=C[C@H]2CN(C1)Cc1c([nH]c3ccccc13)[C@@](C(=O)OC)(c1cc3c(cc1OC)N(C)[C@H]1[C@@](O)(C(=O)OC)[C@H](OC(C)=O)[C@]4(CC)C=CCN5CC[C@]31[C@@H]54)C2
3. O=C1C(c2c(O)[nH]c3ccccc23)=Nc2ccccc21

// result
265
244
275

// provenance: PubChem BioAssay
